- MEASUREMENT_TARGET: bovine heart 3′–5′ cAMP-dependent protein kinase (Bos taurus)
PROPERTY_LABEL: pKd
Numbers only, as −log10 of the molar value.

Entry Nc1ncnc2c1ncn2[C@@H]1O[C@H](COP(=O)(O)OP(=O)(O)OP(O)(O)=S)[C@@H](O)[C@H]1O [ATP-γ-S, adenosinetriphosphate-γ-S] , bovine heart 3′–5′ cAMP-dependent protein kinase (Bos taurus) data, pKd value: 3.70
